pIC50: −log10 of the molar value.
pIC50, UniProtKB Q13547, per-entry values.
Sequence (Q13547 whole entry): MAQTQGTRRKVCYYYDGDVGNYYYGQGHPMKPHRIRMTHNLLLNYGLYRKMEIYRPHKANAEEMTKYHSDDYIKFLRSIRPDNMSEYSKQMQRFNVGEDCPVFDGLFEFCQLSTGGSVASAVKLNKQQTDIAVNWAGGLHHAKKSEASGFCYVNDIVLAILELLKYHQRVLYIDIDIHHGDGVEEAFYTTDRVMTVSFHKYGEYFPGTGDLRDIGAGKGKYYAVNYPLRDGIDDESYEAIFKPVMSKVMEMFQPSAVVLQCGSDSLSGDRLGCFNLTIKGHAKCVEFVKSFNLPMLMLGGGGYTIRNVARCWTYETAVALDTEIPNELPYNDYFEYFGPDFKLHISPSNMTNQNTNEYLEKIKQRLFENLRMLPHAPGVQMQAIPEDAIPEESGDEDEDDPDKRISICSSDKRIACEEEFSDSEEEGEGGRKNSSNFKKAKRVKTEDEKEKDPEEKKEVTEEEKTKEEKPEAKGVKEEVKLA

In the examples that follow, each entry is paired with its recorded pIC50.
Molecular string	Study system	pIC50
COCCN1CCN(c2ccc(C(=O)Nc3cc(-c4cccs4)ccc3N)cc2)CC1	UniProtKB Q13547	> 6.00
Nc1ccc(-c2cccs2)cc1NC(=O)c1ccc(CN2CCC[C@H]2CN2CCCC2)cc1	UniProtKB Q13547	> 6.00
CN(C)[C@@H]1CCN(Cc2ccc(C(=O)Nc3cc(-c4cccs4)ccc3N)cc2)C1	UniProtKB Q13547	> 6.00
CCN(CC)Cc1ccc(C(=O)Nc2cc(-c3cccs3)ccc2N)cc1	UniProtKB Q13547	> 6.00
Nc1ccc(-c2cccs2)cc1NC(=O)N1CCN(Cc2ccc3c(c2)OCO3)CC1	UniProtKB Q13547	> 6.00

Prompt: Requested field: pIC50. Item: `CCN(C)Cc1ccc(C(=O)Nc2cc(-c3cccs3)ccc2N)cc1`
Completion: > 6.00

Prompt: Same again, this time with `CN(C)CCOC(=O)NCc1ccc(C(=O)Nc2cc(-c3cccs3)ccc2N)cc1`
Completion: > 6.00
